Biological target: rat brain N-type calcium channel subunits (α1B+α2δ+β1b cDNA subunits) (Rattus norvegicus, UniProt Q02294)
Construct: expressed in transfected cells; host or cells: HEK 293
Sequence (Q02294 whole entry): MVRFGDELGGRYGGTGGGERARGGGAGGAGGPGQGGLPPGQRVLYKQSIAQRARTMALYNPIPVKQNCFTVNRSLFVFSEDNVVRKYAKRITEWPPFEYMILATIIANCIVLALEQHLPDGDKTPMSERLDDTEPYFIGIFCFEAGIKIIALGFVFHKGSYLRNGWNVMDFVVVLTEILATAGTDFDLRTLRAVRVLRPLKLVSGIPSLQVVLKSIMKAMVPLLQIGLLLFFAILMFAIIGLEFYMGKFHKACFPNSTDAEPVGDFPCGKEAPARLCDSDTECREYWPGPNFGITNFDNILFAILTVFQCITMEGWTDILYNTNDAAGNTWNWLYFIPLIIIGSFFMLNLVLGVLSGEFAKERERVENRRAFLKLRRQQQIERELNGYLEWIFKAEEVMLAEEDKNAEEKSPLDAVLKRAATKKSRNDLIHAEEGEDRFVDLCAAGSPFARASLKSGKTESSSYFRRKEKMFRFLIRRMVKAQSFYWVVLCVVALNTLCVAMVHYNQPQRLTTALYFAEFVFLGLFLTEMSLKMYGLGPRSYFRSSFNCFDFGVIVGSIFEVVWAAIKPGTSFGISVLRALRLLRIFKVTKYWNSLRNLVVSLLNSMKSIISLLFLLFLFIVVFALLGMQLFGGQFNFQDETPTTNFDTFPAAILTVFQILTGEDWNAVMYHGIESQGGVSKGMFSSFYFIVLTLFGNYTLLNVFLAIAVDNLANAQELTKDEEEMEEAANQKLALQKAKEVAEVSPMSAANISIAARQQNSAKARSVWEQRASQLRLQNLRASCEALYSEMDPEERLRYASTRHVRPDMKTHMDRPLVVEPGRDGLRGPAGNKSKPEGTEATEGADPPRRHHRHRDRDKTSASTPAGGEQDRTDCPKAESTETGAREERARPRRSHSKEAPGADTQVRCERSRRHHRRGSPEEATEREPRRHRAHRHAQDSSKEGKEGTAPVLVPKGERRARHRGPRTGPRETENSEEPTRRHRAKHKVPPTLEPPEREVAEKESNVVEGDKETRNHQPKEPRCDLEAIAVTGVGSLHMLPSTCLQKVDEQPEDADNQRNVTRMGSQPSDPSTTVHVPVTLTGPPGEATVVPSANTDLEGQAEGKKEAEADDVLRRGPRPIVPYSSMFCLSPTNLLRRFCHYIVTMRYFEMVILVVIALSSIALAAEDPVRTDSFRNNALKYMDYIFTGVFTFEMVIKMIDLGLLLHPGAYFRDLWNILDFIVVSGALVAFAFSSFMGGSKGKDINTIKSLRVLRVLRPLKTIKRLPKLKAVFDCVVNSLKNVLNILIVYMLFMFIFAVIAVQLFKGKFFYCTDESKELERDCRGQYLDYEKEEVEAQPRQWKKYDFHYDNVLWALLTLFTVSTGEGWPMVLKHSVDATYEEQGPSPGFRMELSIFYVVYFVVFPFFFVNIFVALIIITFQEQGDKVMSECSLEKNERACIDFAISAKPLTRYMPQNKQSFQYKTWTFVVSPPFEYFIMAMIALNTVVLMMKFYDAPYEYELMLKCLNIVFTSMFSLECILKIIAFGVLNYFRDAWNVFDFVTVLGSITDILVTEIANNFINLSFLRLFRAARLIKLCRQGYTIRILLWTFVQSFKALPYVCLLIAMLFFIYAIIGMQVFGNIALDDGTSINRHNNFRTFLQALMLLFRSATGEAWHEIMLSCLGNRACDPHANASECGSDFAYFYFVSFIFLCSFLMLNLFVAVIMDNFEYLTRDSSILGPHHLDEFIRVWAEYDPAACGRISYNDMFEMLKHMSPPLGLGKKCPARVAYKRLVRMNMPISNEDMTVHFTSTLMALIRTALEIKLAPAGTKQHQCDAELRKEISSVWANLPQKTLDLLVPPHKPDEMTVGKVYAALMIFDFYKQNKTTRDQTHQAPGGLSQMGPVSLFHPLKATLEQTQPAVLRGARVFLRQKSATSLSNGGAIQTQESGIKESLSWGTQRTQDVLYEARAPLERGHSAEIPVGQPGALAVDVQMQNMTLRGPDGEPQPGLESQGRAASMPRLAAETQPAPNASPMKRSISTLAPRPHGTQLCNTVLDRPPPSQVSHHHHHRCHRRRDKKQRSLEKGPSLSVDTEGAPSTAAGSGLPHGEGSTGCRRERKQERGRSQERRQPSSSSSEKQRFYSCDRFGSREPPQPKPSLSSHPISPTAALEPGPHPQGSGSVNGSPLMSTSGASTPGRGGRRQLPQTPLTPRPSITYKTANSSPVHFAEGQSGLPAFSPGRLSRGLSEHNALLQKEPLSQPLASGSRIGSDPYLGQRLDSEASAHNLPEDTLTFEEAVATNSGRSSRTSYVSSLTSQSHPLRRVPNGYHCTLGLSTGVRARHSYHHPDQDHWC
Assay: N-type calcium channel block, whole cell patch clamp in HEK 293 cells
Type: cell-based
Details: low frequency stimulation 0.067 Hz (tonic block); holding potential −80 mV to +10 mV; read-out: IC50 @ 0.067 Hz
pIC50: −log10 of the molar value.
endpoint: pIC50

// below: answered compounds
> print(dat)
                                   compound   val
1  O=C(CCCCC(c1ccc(F)cc1)c1ccc(F)cc1)NCC#CCNC(=O)c1ccc(F)cc1  6.54
2  COc1cc(C(=O)NC/C=C\CNC(=O)CCCCC(c2ccc(F)cc2)c2ccc(F)cc2)cc(OC)c1OC [Compound P1]  6.64
3  COc1cc(C(=O)NC/C=C/CNC(=O)CCCCC(c2ccc(F)cc2)c2ccc(F)cc2)cc(OC)c1OC  6.48
4  CC(C)(C)c1ccc(C(=O)NC/C=C\CNC(=O)CCCCC(c2ccc(F)cc2)c2ccc(F)cc2)cc1  7.07
5  O=C(CCCCC(c1ccc(F)cc1)c1ccc(F)cc1)NC/C=C\CNC(=O)c1cc(C(F)(F)F)cc(C(F)(F)F)c1  7.13

I. O=C(CC(c1ccccc1)c1ccccc1)NC/C=C/CN(Cc1ccncc1)Cc1ccncc1
II. O=C(CCCCC(c1ccc(F)cc1)c1ccc(F)cc1)NC/C=C/CNC(=O)c1ccc(Cl)cc1
Hello, I am sorting some records. Could you say if I or II has the smaller pIC50 value? Which one? Tell me its label.
II
(II: 6.09, I: 6.29)
